These measurements were taken from ChEMBL document CHEMBL1138106.

ASSAY_INFO: Clearance in Sprague-Dawley rat at 1 mg/kg, iv
Type: ADME, organism-based
Design: dose 1 mg/kg, route intravenous
SETUP_CONDITIONS: in vivo

ITEM_SMILES | clearance (mL/min/kg)
Cc1cc(S(=O)(=O)N[C@@H](C(=O)NO)C2CCOCC2)ccc1F | 80

* * *

TESTED_TARGET: Lethal factor (Bacillus anthracis, UniProt P15917)
Sequence (P15917 whole entry): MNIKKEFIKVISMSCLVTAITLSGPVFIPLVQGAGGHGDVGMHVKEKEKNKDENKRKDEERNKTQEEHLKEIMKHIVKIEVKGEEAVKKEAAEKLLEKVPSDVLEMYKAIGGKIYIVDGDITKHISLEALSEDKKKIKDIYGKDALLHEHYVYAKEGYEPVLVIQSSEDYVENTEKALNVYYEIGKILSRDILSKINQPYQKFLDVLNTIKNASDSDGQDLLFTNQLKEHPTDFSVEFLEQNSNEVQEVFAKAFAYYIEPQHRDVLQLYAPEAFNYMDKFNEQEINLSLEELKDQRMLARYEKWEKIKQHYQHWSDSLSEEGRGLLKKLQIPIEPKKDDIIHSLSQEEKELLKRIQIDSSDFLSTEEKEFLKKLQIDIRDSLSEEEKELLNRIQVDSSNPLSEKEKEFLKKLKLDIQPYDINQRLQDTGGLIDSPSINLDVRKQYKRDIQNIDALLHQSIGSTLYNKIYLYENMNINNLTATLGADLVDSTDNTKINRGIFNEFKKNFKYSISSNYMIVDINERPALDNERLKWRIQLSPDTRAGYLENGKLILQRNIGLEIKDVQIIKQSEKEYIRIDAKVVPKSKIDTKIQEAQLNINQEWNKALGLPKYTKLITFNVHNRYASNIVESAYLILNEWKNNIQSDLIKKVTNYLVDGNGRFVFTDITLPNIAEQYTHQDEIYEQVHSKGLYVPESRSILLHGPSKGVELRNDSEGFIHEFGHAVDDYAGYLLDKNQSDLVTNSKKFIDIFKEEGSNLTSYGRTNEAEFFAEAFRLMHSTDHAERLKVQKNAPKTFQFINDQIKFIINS
ASSAY_INFO: Inhibition of LF
SETUP_CONDITIONS: read-out: IC50
pIC50: −log10 of the molar value.

ITEM_SMILES | pIC50
Cc1cc(S(=O)(=O)N[C@@H](C(=O)NO)C2CCOCC2)ccc1F | 7.27
